System Under Test: human mGlu2 receptor (Homo sapiens, UniProt Q14416)
Sequence (Q14416 19-872): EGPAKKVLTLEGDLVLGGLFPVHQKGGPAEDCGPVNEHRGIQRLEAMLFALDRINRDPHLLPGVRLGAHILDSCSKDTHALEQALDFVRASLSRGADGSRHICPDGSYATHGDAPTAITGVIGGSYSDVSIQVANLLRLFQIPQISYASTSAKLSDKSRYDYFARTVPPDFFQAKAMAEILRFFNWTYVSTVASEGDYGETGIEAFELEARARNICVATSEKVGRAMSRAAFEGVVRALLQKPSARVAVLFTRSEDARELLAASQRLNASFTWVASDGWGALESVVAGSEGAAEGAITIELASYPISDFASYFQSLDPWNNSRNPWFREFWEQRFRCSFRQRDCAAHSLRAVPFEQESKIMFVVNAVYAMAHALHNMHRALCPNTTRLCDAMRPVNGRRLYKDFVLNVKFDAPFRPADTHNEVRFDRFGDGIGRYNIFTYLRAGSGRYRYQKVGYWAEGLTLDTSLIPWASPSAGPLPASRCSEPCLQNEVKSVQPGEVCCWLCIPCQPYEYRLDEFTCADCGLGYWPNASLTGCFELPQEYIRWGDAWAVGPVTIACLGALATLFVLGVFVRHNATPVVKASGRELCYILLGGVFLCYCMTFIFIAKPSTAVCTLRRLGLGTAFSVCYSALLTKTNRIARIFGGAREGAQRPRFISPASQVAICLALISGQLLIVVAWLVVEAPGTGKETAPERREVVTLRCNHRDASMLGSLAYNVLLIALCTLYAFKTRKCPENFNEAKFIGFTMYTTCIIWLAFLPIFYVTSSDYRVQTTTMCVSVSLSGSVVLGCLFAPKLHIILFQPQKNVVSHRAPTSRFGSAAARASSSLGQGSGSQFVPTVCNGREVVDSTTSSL
Assay Info: [35S]GTPγS binding assay, mGluR2 negative allosteric modulation (membranes from CHO cells transfected with human mGlu2 receptor, glutamate ~EC80 60 μM)
Recorded Conditions: read-out: GTPγS - hmGluR2 anGT Emax, relative maximal effect: maximal % inhibition relative to the control glutamate response
Quantity Name: Emax (%)
Numbers only; they are read as %.

// below: answered compounds
C[C@H]1CN(c2ccc(C(F)(F)F)c(F)c2)C(=O)c2c(C(=O)Nc3ccccn3)cnn21 113
Cc1c(F)cncc1NC(=O)c1cnn2c1C(=O)N(c1ccc(C(F)(F)F)cc1)C[C@@H]2C 107
Cc1cc(NC(=O)c2cnn3c2C(=O)N(c2ccc(Cl)c(OC(F)F)c2)C[C@@H]3C)ccn1 112

Q: Fill in the blank: the reported Emax of C[C@H]1CN(c2ccc(C(F)(F)F)cc2)C(=O)c2c(C(=O)Nc3cncc(CO)c3)cnn21 is ____.
Result: 105

Q: For C[C@H]1CN(c2ccc(Cl)c(Cl)c2)C(=O)c2c(C(=O)Nc3ccccn3)cnn21 , what is its reported Emax?
Result: 112

Q: What does the data say about its Emax? Entry: Cc1c(F)cncc1NC(=O)c1cnn2c1C(=O)N(c1ccc(C(F)(F)F)c(F)c1)C[C@@H]2C
Result: 110

Q: Which Emax is reported for this compound? Cc1c(F)cncc1NC(=O)c1cnn2c1C(=O)N(c1ccc(Cl)c(Cl)c1)C[C@@H]2C
Result: 110

Q: Look at this compound and give its reported Emax. C[C@H]1CN(c2ccc(C(F)(F)F)cc2)C(=O)c2c(C(=O)Nc3ncccc3F)cnn21
Result: 110

Q: What measured Emax goes with Cc1cc(N2C[C@H](C)n3ncc(C(=O)Nc4ccccn4)c3C2=O)ccc1C(F)(F)F ?
Result: 114

Q: What Emax value was documented for this compound, C[C@H]1CN(c2ccc(C(F)(F)F)c(Cl)c2)C(=O)c2c(C(=O)Nc3cnccn3)cnn21 ?
Result: 111

Q: // returns reported Emax for input C[C@H]1CN(c2ccc(C(F)(F)F)c(F)c2)C(=O)c2c(C(=O)Nc3cnccn3)cnn21
Result: 107

Q: I would be grateful if you could share the reported Emax for C[C@H]1CN(c2ccc(C(F)(F)F)cc2)C(=O)c2c(C(=O)Nc3ccnc(CO)c3)cnn21 .
Result: 107

Q: I am curious: what Emax value has been reported for C[C@H]1CN(c2ccc(C(F)(F)F)cc2)C(=O)c2c(C(=O)NCC3CCC3)cnn21 ?
Result: 113

Q: Requested read-out: Emax. Entry: C[C@H]1CN(c2ccc(C(F)(F)F)cc2)C(=O)c2c(C(=O)Nc3ccncc3)cnn21
Result: 116

Q: Given the entry Cc1c(F)cncc1NC(=O)c1cnn2c1C(=O)N(c1ccc(Cl)cc1)C[C@@H]2C , report its measured Emax.
Result: 110

Q: Item Cc1ccncc1NC(=O)c1cnn2c1C(=O)N(c1ccc(C(F)(F)F)cc1)C[C@@H]2C has what recorded Emax?
Result: 109

---

Reported Emax values are given for each entry in this list.
System Under Test: human mGlu2 receptor (Homo sapiens, UniProt Q14416)
Assay Info: [35S]GTPγS binding assay, mGluR2 negative allosteric modulation (membranes from CHO cells transfected with human mGlu2 receptor, glutamate ~EC80 60 μM);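 further: membranes preincubated 30 min at 30 °C with compound plus glutamate, then [35S]GTPγS (0.1 nM) incorporation measured over another 30 min at 30 °C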
Recorded Conditions: read-out: GTPγS - hmGluR2 anGT Emax, relative maximal effect: maximal % inhibition relative to the control glutamate response
I only need the number, in %, no unit after it.

Compound	Unit Name	Emax
Cc1cc(N2C[C@H](C)n3ncc(C(=O)Nc4cnccn4)c3C2=O)ccc1Cl	%	108
Cc1cc(NC(=O)c2cnn3c2C(=O)N(c2ccc(C(F)(F)F)cc2)C[C@@H]3C)ccn1	%	105
Cc1cc(N2C[C@H](C)n3ncc(C(=O)Nc4cncc(F)c4)c3C2=O)ccc1C(F)(F)F	%	112
CC(NC(=O)c1cnn2c1C(=O)N(c1ccc(C(F)(F)F)cc1)C[C@@H]2C)C1CC1 (single isomer, unassigned)	%	104
C[C@H]1CN(c2ccc(C(F)(F)F)cc2)C(=O)c2c(C(=O)Nc3nccs3)cnn21	%	111
COc1cncc(NC(=O)c2cnn3c2C(=O)N(c2ccc(C(F)(F)F)c(OC)c2)C[C@@H]3C)c1	%	107

Consider now this further compound.
Q: # Emax lookup, item C[C@H]1CN(c2ccc(C(F)(F)F)c(Cl)c2)C(=O)c2c(C(=O)Nc3cccnc3)cnn21
Result: 109
